Source: PubChem BioAssay (NCI)

Measured growth by item
Tested on: PC-3 prostate
assay_overview: NCI-60 one-dose screen, 48 h (100 = growth as untreated, 0 = no growth, -100 = all killed)
measurement_conditions: 10 µM unless noted
The panel holds about 83,000 compounds, 20% with a hit somewhere; the sample as a whole holds those more often. Calls of active or inactive are those of the source. How the source made its calls: active means growth percent below 10; inactive means the rest.

Example cases with answers are listed next.
[[record]]
smiles_code = "Nc1nc(N)c2cc(Sc3ccc(Cl)cc3)ccc2n1"
endpoint_name = "growth"
experimental_value = "25.2% (inactive)"

[[record]]
smiles_code = "COc1cc(/C=C/C(=O)c2c(C)nc3ccccc3c2C)ccc1OCCCOc1cc2c(cc1OC)C(=O)N1CCC[C@H]1C=N2"
endpoint_name = "growth"
experimental_value = "-15.9% (active)"

[[record]]
smiles_code = "C[C@@H]1C[C@H](N)C[C@H](c2ccncc2NC(=O)c2ccc(F)c(-c3c(F)cccc3F)n2)C1"
endpoint_name = "growth"
experimental_value = "24.2% (inactive)"

[[record]]
smiles_code = "Oc1ccc(-c2cnc(-c3ccccc3)[nH]2)c(O)c1"
endpoint_name = "growth"
experimental_value = "100% (inactive)"

[[record]]
smiles_code = "CCN(CC)Cc1cc(Nc2ccnc3cc(Cl)ccc23)cc(-c2ccc(Cl)cc2)c1O"
endpoint_name = "growth"
experimental_value = "25.2% (inactive)"


Please give measured growth of the following entry: "COc1ccc(/C(=C\c2cc(OC)c(OC)c(OC)c2)C(=O)N2CCNCC2)cc1"
90.7% (inactive)

Annotate the molecule "COc1cc(-c2n/c(=C\c3c(O)[nH]c4cc(Cl)ccc34)cc3c2=Nc2ccccc2-3)cc(OC)c1OC" with its measured growth.
52.2% (inactive)

Tell me its growth given "COc1cc2nccc(Oc3ccc(NC(=O)C4(C(=O)Nc5ccc(F)cc5)CC4)cc3)c2cc1OC(=O)c1ccc(N)cc1" as the entry.
25.4% (inactive)

Supply recorded growth for "Cc1cc(C)c2c(n1)sc1c(Nc3ccc(O)cc3)ncnc12" here.
47.2% (inactive)

* * *

System: SR leukemia
assay_overview: NCI-60 one-dose screen, 48 h (100 = growth as untreated, 0 = no growth, -100 = all killed)
measurement_conditions: 10 µM unless noted
Method: Growth inhibition of the SR human tumor cell line is measured as a screen for anti-cancer activity. Cells are grown in 96 well plates and exposed to the test compound for 48 hours. Compounds are tested at a single concentration, which is 10^-5 M for most compounds. The reported endpoint is percent growth (GI% or GIPRCNT), where numbers from 0 - 100% represent growth inhibition, and numbers from -100% - 0 represent cell death. For example, a value of 40 represents 60% growth inhibition. […]
About 83,000 compounds went through this panel and 20% of them were active in at least one assay; those are over-represented in the sample as a whole.
// growth lookup, one value per entry
Field: numeric (%). Do not append units.

[[record]]
compound = "NC(=S)N/N=C(/c1cccs1)C1CC1"
reading_unit = "%"
experimental_value = 120

[[record]]
compound = "COc1cccc(Cn2c(-c3nonc3NC(C)=O)nc3ccccc32)c1"
reading_unit = "%"
experimental_value = 16.3

[[record]]
compound = "NC(N)=N/N=C/c1ccccc1"
reading_unit = "%"
experimental_value = 96

[[record]]
compound = "CCOc1cccc(/C=N/NC(=O)c2ccc(Nc3ccnc(C(F)(F)F)c3)cc2)c1O"
reading_unit = "%"
experimental_value = 68.7

[[record]]
compound = "COC(=O)c1cc2oc(/C=N/NC(=O)c3cc4oc(-c5cccc(C(F)(F)F)c5)cc4[nH]3)cc2n1Cc1ccccc1"
reading_unit = "%"
experimental_value = 33

[[record]]
compound = "CC(=O)O[C@H]1[C@H](CC#CC#CC[C@@H]2C[C@]3(C)[C@H]4CC=C5[C@H]6[C@@H](C)[C@H](C)CC[C@]6(C(=O)NCCN(CCN)CCN)CC[C@@]5(C)[C@]4(C)CC[C@H]3C(C)(C)[C@H]2OC(C)=O)C[C@]2(C)[C@H]3CC=C4[C@H]5[C@@H](C)[C@H](C)CC[C@]5(C(=O)NCCN(CCN)CCN)CC[C@@]4(C)[C@]3(C)CC[C@H]2C1(C)C"
reading_unit = "%"
experimental_value = 53.9


Using the record for CC1(C)C(N(O)C(=O)Nc2ccc(Cl)cc2)N(c2ccc(Cl)cc2)C(=O)N1CC(=O)N/N=C/C=C/c1ccc([N+](=O)[O-])o1 (centres undefined) , state its measured growth.
-13.1

Quick one: give measured growth for "COc1cc2c(cc1OCCCOc1cc3c(cc1OC)C(=O)N1CCC[C@H]1C=N3)C=CC(C)(C)O2"
25.8

* * *

Tested on: NCI-H322M lung
assay_overview: NCI-60 one-dose screen, 48 h (100 = growth as untreated, 0 = no growth, -100 = all killed)
measurement_conditions: 10 µM unless noted
About 83,000 compounds went through this panel and 20% of them were active in at least one assay; those are over-represented in the sample as a whole.
This section presents compounds with their documented growth values.
Report only the number, with the unit % understood.

Reference set, count: 3
[[record]]
compound = "CN(CCO)c1ccc(N2Cc3ccccc3OC3=C2C(=O)c2c(O)ccc(O)c2C3=O)cn1"
endpoint_name = "growth"
reading_unit = "%"
experimental_value = -0.583

[[record]]
compound = "c1ccc(C2=Nc3ccccc3SC2)cc1"
endpoint_name = "growth"
reading_unit = "%"
experimental_value = 98.2

[[record]]
compound = "O=C(CCc1nc2sc3c(c2c(=O)[nH]1)CCC3)NCc1cn(-c2ccccc2)nc1-c1ccccc1"
endpoint_name = "growth"
reading_unit = "%"
experimental_value = 92.8


For the next question, use this compound.
Check the records and state growth for CC(C)N=C1CCCC1C(=S)SSC(=S)C1CCCC1=NC(C)C (stereo unspecified)
86.7

* * *

Tested on: DU-145 prostate
assay_overview: NCI-60 one-dose screen, 48 h
measurement_conditions: 10 µM unless noted
The panel holds about 83,000 compounds, 20% with a hit somewhere; the sample as a whole holds those more often. Active and inactive are the calls of the source. How the source made its calls: active means growth percent below 10; inactive means the rest.
Would you mind answering with one of these outcomes? label 1 = active, label 0 = inactive

Field: example entries. Status: answers known.
[[record]]
molecule = "Cc1cc(O)ccc1C1=NN(c2ccc(S(N)(=O)=O)cc2)C(=O)CC1"
label = "label 0"

[[record]]
molecule = "Nc1nc(N)c2c(n1)NC(c1sc(Cl)nc1Cl)CC(c1ccc3c(c1)OCO3)=N2 (stereo not given)"
label = "label 0"

[[record]]
molecule = "CC(=O)[C@H]1CC[C@H]2[C@@H]3CC[C@H]4CC=CC[C@]4(C)[C@H]3CC[C@]12C"
label = "label 0"

[[record]]
molecule = "O=c1[nH]cnc2nc[nH]c12"
label = "label 0"

[[record]]
molecule = "Nc1nc2ccc([C@@H]3Nc4ccc5[nH]ncc5c4[C@H]4[C@H]5CCC(C5)[C@H]43)cc2s1"
label = "label 1"


State the result this test recorded for "COc1ccc(/C=C/C(=O)c2ccc(NC(=O)CSc3nnc(-c4ccc(OC)cc4)n3-c3ccccc3)cc2)cc1" .
label 0

* * *

System: ACHN renal
assay_overview: NCI-60 one-dose screen, 48 h (100 = growth as untreated, 0 = no growth, -100 = all killed)
measurement_conditions: 10 µM unless noted
The panel holds about 83,000 compounds, 20% with a hit somewhere; the sample as a whole holds those more often.
Please use Criterion met for growth under 40% and Criterion not met for everything else, ties included.

Some entries whose results are on file:
[[record]]
molecule = "CCCc1n(Cc2ccc3ccccc3c2)c2ccccc2[n+]1Cc1ccc2ccccc2c1"
measurement_target = "ACHN renal"
label = "Criterion met"

[[record]]
molecule = "Cc1nc2c(-c3cnc(N)nc3)nc(N3CCOCC3)nc2n1C(C)C"
measurement_target = "ACHN renal"
label = "Criterion met"

[[record]]
molecule = "COc1ccc(/C=C2\\N=C(c3cccnc3)N(c3ccccc3)NC2=O)cc1"
measurement_target = "ACHN renal"
label = "Criterion not met"


Please state whether growth is below 40% for "Cc1cc(O)ccc1C1=NN(c2ccc(S(N)(=O)=O)cc2)C(=O)CC1"
Criterion not met

Just wondering, is growth of "CCCNC(=S)N/N=C(\C)c1ccccn1" below 40%?
Criterion met

Is it true that growth reported for "Nc1ccc(C(OC(=O)c2cc3ccccc3c(Cc3c(O)c(C(=O)OC(c4ccc(N)cc4)(c4ccc(N)cc4)c4ccc(N)cc4)cc4ccccc34)c2O)(c2ccc(N)cc2)c2ccc(N)cc2)cc1" is less than 40%?
Criterion not met

Would you kindly verify if growth of "CC(C)[C@H](CN)NC[C@H](C)NS(=O)(=O)c1ccc(C(C)(C)C)cc1" is strictly less than 40%?
Criterion not met

Hello, I'm reviewing records and need to know if growth of NS(=O)(=O)c1ccc(N2N=C(c3cccs3)CC2c2ccccc2O)cc1 (stereo unspecified) is below 40%. Could you check?
Criterion met

* * *

System: SR leukemia
assay_overview: NCI-60 one-dose screen, 48 h (100 = growth as untreated, 0 = no growth, -100 = all killed)
measurement_conditions: 10 µM unless noted
Compounds without any hit were thinned out: in the full panel of roughly 83,000, 20% have a hit.
endpoint_name: growth (%)
The response must be a number in % with no trailing unit.

Before answering, review these 5 worked examples.
[[record]]
compound = "COc1cc(Nc2ccnc3ccc(Br)cc23)cc(OC)c1OC"
measurement_target = "SR leukemia"
experimental_value = 15.7

[[record]]
compound = "COc1ccccc1/C=N\\NC(=S)Nc1ccc(F)cc1"
measurement_target = "SR leukemia"
experimental_value = 28.6

[[record]]
compound = "COc1ccc2[nH]cc(/C=C3\\C(=O)Nc4ccccc43)c2c1"
measurement_target = "SR leukemia"
experimental_value = 2.21

[[record]]
compound = "COc1ccc(-c2oc(=O)ccc2-c2cc(OC)c(OC)c(OC)c2)cc1F"
measurement_target = "SR leukemia"
experimental_value = 7.57

[[record]]
compound = "CC[C@H](Nc1nc(N)nc(N)c1Cl)c1nc2cccc(NCc3ccc(C(=O)NO)cc3)c2c(=O)n1-c1ccccc1"
measurement_target = "SR leukemia"
experimental_value = -5.94


Kindly indicate its recorded growth. Item: COc1cc(C2CC(c3ccc(Cl)cc3)=NN2C=O)ccc1OS(=O)(=O)c1ccc(C)cc1 (stereo not given)
99.8

Give the reported value of growth for this record: "Oc1c(-c2cc(C(F)(F)F)[nH]n2)cc(Cl)c(OCc2ccc(Cl)cc2)c1-c1ccc(Cl)c(C(F)(F)F)c1"
15.2

Please give measured growth of the following entry: "Cc1c(C)c(C)c([N+](=O)[O-])c([N+](=O)[O-])c1C"
99.8

Output growth of "COc1ccc(-c2n[nH]nc2-c2cc(OC)c3c(c2)OCO3)cc1"
-30.8

Indicate the recorded growth value for this compound: CCCN(CCC)CC(O)COc1ccccc1C(=O)Nc1ccccc1 (stereo not given)
28.7
